Test system: Ralstonia solanacearum
Experiment: Antibacterial activity against Ralstonia solanacearum assessed as bacterial growth inhibition
Assay type: functional
READOUT NAME: MIC (µg/mL)
Give bare numbers, in µg/mL.

SMI	DISPLAY UNIT	MIC
N#Cc1ccc2[nH]cc(CN3CCN(Cc4ccc(Cl)cc4Cl)CC3)c2c1	µg/mL	32

Count: 3. Required value per item: MIC.
1. FC(F)(F)c1ccc(CN2CCN(Cc3c[nH]c4ccc(Cl)cc34)CC2)c(N2CCCC2)c1
2. Cn1cc(CN2CCN(Cc3ccc(Cl)cc3Cl)CC2)c2cc(F)ccc21
3. Cn1cc(CN2CCN(Cc3ccc(Cl)cc3Cl)CC2)c2cc([N+](=O)[O-])ccc21

Output:
8
32
32

I have 2 compounds here; please give me MIC for each one.
1. N#Cc1ccc2[nH]cc(CN3CCN(Cc4ccc(C(F)(F)F)cc4N4CCCC4)CC3)c2c1
2. Clc1ccc(CN2CCN(Cc3c[nH]c4ccc(Cl)cc34)CC2)c(Cl)c1

Output:
1: 128; 2: 16

Batch request: MIC per item, same order as input.
1. COc1ccc2[nH]cc(CN3CCN(Cc4ccc(C(F)(F)F)cc4N4CCCC4)CC3)c2c1
2. O=[N+]([O-])c1ccc2[nH]cc(CN3CCN(Cc4ccc(C(F)(F)F)cc4N4CCCC4)CC3)c2c1
3. Fc1ccc2[nH]cc(CN3CCN(Cc4ccc(C(F)(F)F)cc4N4CCCC4)CC3)c2c1
4. Fc1ccc2[nH]cc(CN3CCN(Cc4ccc(Cl)cc4Cl)CC3)c2c1
5. Cn1cc(CN2CCN(Cc3ccc(Cl)cc3Cl)CC2)c2cc(Cl)ccc21

Output:
16
32
128
32
8
